Tested on: P. aeruginosa H374
Type: cell-based, Pseudomonas aeruginosa
reported conditions: MIC of nalidixic acid with peptide at ¼ MIC
No end group written: not given here.
I'd appreciate it if you could supply MIC Nal-comb. values for the items below.
Give bare numbers, in mg/L.

> print(dat)
                                  substance  experimental.readout  unit.abbrev  number
1  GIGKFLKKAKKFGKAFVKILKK-NH2 [P42, reference compound]         MIC Nal-comb.         mg/L    5000
2                 FAKALKALLKALKAL-NH2 [P64]         MIC Nal-comb.         mg/L    5000
3                   FAKLLAKALKKL-NH2 [P103]         MIC Nal-comb.         mg/L     625

I would be grateful if you could provide MIC Nal-comb. for each of the following entries.
1. LPKWKVFKKIEKVGRNIRNGIVKAGPAIAVLGEAKALG-NH2 [P306, reference compound]
2. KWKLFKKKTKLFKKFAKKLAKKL-OH [P81]
3. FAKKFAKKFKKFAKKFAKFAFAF-NH2 [P301, reference compound]
4. GIGKFLHAAKKFAKAFVAEIMNS-NH2 [P300, reference compound]
5. FAKLLAKALKKLL-NH2 [P55]
6. FAKLLALALKKAL-NH2 [P97, FAKLLALALKKAL-NH2]
7. FAKFLAKFLKKAL-NH2 [P111, FAKFLAKFLKKAL-NH2]
8. FAKLLKLAAKKLL-NH2 [P56]

Output:
5000
5000
625
312
5000
5000
2500
2500

I would be grateful if you could provide MIC Nal-comb. for each of the following entries.
1. FAKKLAKKLL-NH2 [P59]
2. FAKLLAKLAKKAL-NH2 [P54, FAKLLAKLAKKAL-NH2]

Output:
2500
5000

I would be grateful if you could provide MIC Nal-comb. for each of the following entries.
1. FAKLAKKLL-NH2 [P60]
2. FALALKKALKALKKAL-NH2 [P34]
3. FAKKLKKLAKLAKKL-NH2 [P46]
4. FAKKLAKKLKKLAKKLAK-OH [P71]
5. FAKLLAKLAKKVL-NH2 [P124]
6. FAKLLAKLAKLKL-NH2 [P66]
7. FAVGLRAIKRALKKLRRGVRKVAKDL-NH2 [P157, reference compound]

Output:
1. 1250
2. 2500
3. 2500
4. 2500
5. 2500
6. 5000
7. 2500

Numbers sourced from patent US20050209157A1.
